Where do the numbers come from? From patent US20220033460A1.

system: DRB1*15:01
condition summary: modification not given
metric name: pIC50
A value of pIC50 is the negative decimal logarithm of a concentration given in moles per litre.

In: For the binder NFRVQPTESIVRFPN [… (position 317)] , give its reported pIC50.
Out: 5.99
